target or system: L7Ae (Archaeoglobus fulgidus (printed A. …, UniProt O29494 1-119))
Sequence (O29494 whole entry): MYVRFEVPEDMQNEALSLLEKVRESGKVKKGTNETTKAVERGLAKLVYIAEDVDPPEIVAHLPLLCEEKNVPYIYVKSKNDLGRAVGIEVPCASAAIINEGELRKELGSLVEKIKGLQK
assay overview: SPR; SPR: 10 mM HEPES pH 7.4, 150 mM NaCl, 1 mM MgCl2, 0.05% P20, 0.25 mM TCEP, 0.1 mg/ml BSA, 25 ug/ml yeast tRNA, 25 C; EMSA: 10 mM HEPES-KOH pH 7.5, 140 mM KCl, 10 mM NaCl, 1 mM MgCl2, 0.1 mM TCEP, 0.01% Tween-20, 10 ug/ml yeast tRNA (1x of the printed 5x buffer)
applied conditions: protein: recombinant; tags: N-term Twin-Strep-tag; C-term 6xHis; hairpin, asymmetric internal loop (putative kink-turn)
quantity kind: Kd (pM)
One number for each entry, in pM.

[in] Which value of Kd has been reported for CS2 (structured_RNA) RNA: GGAUGCAGAGAACGAAAGUUCCAUGACGCAUCCAAAUCGACGAAAGACACAGAACG in the records?
[out] 5.71
